- target.or.system: UniProtKB P25090
- Sequence (P25090 whole entry, species assumed): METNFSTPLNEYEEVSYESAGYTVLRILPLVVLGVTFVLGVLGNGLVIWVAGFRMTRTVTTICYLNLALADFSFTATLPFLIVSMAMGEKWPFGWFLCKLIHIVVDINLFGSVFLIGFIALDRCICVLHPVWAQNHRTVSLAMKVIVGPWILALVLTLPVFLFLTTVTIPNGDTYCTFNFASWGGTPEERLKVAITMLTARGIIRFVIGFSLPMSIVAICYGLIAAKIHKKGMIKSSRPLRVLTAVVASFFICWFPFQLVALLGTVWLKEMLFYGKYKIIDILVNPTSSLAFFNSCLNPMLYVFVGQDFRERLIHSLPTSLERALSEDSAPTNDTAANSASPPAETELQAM
- method.summary: Change in calcium activity by peptide (Fura-2) in RBL cells overexpressing FPR2
- conditions: calcium activity (Fura-2), graded per Table 3, read-out: EC50 for [Ca^2+] FPR2
Peptide text beside a SMILES is read from it.
Known EC50 of a selection of compounds

[
  {
    "compound": "CSCC[C@H](NC(=O)[C@@H](N)CCCNC(=N)N)C(=O)N[C@@H](CCCNC(=N)N)C(=O)N[C@@H](Cc1ccc(O)cc1)C(=O)N[C@@H](CCCCN)C(=O)N[C@@H](Cc1ccc(O)cc1)C(=O)N[C@H](CCSC)C(N)=O [Peptide 38] (HELM PEPTIDE1{R.M.R.Y.K.Y.[dM].[am]}$$$$V2.0)",
    "EC50": "< 10 nM"
  },
  {
    "compound": "CCCCCCCC(=O)N[C@@H](CCCNC(=N)N)C(=O)N[C@@H](CCSC)C(=O)N[C@@H](CCCNC(=N)N)C(=O)N[C@@H](Cc1ccc(O)cc1)C(=O)N[C@@H](Cc1c[nH]c2ccccc12)C(=O)N[C@@H](Cc1ccc(O)cc1)C(=O)N[C@H](CCSC)C(N)=O [Peptide 84] (HELM PEPTIDE1{[CCCCCCCC(=O)[*:2]].R.M.R.Y.W.Y.[dM].[am]}$$$$V2.0)",
    "EC50": "11 to 100 nM"
  }
]

Lab note: next compound to report on.
Identify EC50 associated with the compound CCCC(=O)N[C@@H](Cc1c[nH]cn1)C(=O)N[C@@H](CCSC)C(=O)N[C@@H](CCCNC(=N)N)C(=O)N[C@@H](Cc1ccc(O)cc1)C(=O)N[C@@H](CCCCN)C(=O)N1CCC[C@H]1C(=O)N[C@H](CCSC)C(N)=O [Peptide 60] (HELM PEPTIDE1{[CCCC(=O)[*:2]].H.M.R.Y.K.P.[dM].[am]}$$$$V2.0)
< 10 nM
